# TARGET UNDER TEST: EGFR[T790M/C797S/d746-750] (Homo sapiens, UniProt P00533, C797S/DEL746-750/T790M)
# Construct: purchased Carna Bio
# Sequence (P00533 with tags, fused parts or gaps DEL746-750/T790M/C797S limits assumed): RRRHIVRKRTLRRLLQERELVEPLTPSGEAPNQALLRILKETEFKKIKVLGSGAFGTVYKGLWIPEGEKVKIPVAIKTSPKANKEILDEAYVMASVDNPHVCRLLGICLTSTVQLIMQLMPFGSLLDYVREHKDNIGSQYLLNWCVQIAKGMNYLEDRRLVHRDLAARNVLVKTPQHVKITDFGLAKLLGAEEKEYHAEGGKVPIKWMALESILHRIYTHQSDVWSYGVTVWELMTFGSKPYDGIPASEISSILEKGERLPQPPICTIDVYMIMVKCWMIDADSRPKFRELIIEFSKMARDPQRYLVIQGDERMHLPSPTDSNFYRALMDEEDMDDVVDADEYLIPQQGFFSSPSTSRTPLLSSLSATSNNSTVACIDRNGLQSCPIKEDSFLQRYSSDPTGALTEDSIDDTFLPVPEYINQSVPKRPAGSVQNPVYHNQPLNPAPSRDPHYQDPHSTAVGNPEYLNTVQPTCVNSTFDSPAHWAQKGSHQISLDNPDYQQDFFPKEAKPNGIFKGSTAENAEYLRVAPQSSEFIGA
# ASSAY OVERVIEW: Inhibition of EGFR[T790M/C797S/d746-750] biochemical enzymatic activity (HTRF)
# PARTICULARS: EGFR T790M-C797S-Del19, 1 mM ATP, 1 h, room temperature, read-out: IC50 (nM) @T790M - C797S - Del19
MEASURE NAME: IC50 (nM)

>  <COMPOUND>
CN1CCC2CN(c3ccc4nc5n(c4c3)C34CCC(CC3)CN(CCOc3c(cnn3C)-c3cc(cn(C)c3=O)C(=O)N5)C4)CC21 (centres unmarked)

>  <U>
nM

>  <IC50>
6.1

$$$$

a = CN1CCC2(CC1)CN(c1ccc3nc4n(c3c1)C13CCC(CN(CCOc5c(cnn5C)-c5cc(cn(C)c5=O)C(=O)N4)C1)C3)C2 (single isomer, unassigned) [Example A77B]
b = CN1CCN(c2ccc3c(c2)nc2n3C34CCC(CN(CCOc5c(cnn5C)-c5cc(cn(C)c5=O)C(=O)N2)C3)C4)CC1 (centres unmarked) [Example A60]
// query Form: Entry with minimum IC50 (choose one): a / b Write the label of whichever entry you select.
// result a
(a: 3.6 nM, b: 9.4 nM)

====

# System: Ba/F3 cells expressing EGFR mutations
# ASSAY OVERVIEW: Cell proliferation assay, Ba/F3 cells expressing EGFR mutations (CellTiter-Glo, 72 hours)
# Type: cell-based
# PARTICULARS: Mus musculus, BaF3, 72 h, BaF3 cells, EGFR L858R-T790M, CellTiter-Glo, read-out: L858R-T790M/BaF3 GI50
# Method: Biological Example 2: Cell Proliferation Assays Ba/F3 cells expressing EGFR mutations were seeded in 384-well plates at 5000 cells/well in RPMI1640 medium containing 1000 FBS. […] The assay plates were further incubated for 72 hours and the number of viable cells (G3) was measured. The percentage of proliferation was calculated as: […]=100×(G3 value of sample well−G0 value)/(G3 value of DMSO control−G0 value). […]
MEASURE NAME: GI50 (nM)

Reference set, count: 3
>  <COMPOUND>
Cn1ncc2c1OCCN1CC3CCC(C3)(C1)n1c(nc3ccc(N4CCOCC4)cc31)NC(=O)c1cc-2c(=O)n(C)c1 (single isomer, unassigned) [Example A62B]

>  <GI50 / nM>
8.4

$$$$
>  <COMPOUND>
CC(C)N1CCN(c2ccc3nc4n(c3c2)C[C@H](C)CCCOc2c(cnn2C)-c2cc(cn(C)c2=O)C(=O)N4)CC1 [Example A50]

>  <GI50 / nM>
9.5

$$$$
>  <COMPOUND>
CN1CCN(c2ccc3nc4n(c3c2)CCN(CC(F)(F)F)CCOc2c(cnn2C2CC2)-c2cc(cn(C)c2=O)C(=O)N4)CC1 [Example A2]

>  <GI50 / nM>
5.5

$$$$

P = C[C@@H]1CCCOc2c(cnn2C)-c2cc(cn(C3CC3)c2=O)C(=O)Nc2nc3ccc(N4CCN(C)CC4)cc3n2C1 [Example A15]
Q = C[C@@H]1CCCOc2c(cnn2C)-c2cc(cn(C)c2=O)C(=O)Nc2nc3ccc(N4CCC5(CCN(C)C5)C4)cc3n2C1 (stereo partly drawn) [Example A34]
// query Larger number for GI50: P , or Q ? // output: label of the selected item
// result P
(P: 1550 nM, Q: 9.8 nM)

====

# Test system: PC-9
# ASSAY OVERVIEW: Cell proliferation assay, PC-9 cells (CellTiter-Glo, 72 hours)
# Assay type: cell-based
# PARTICULARS: Homo sapiens, PC-9, 72 h, PC9 cells, CellTiter-Glo, read-out: PC9 GI50
MEASURE NAME: GI50 (µM)

Examples with answers:
>  <COMPOUND>
C[C@@H]1CCCOc2c(cnn2C)-c2cc(cn(C)c2=O)C(=O)Nc2nc3ccc(N4CCNCC4)cc3n2C1

>  <RESULT NUMBER>
0.051

$$$$
>  <COMPOUND>
C[C@@H]1CCCOc2c(cnn2C)-c2cc(cn(C)c2=O)C(=O)Nc2nc3ccc(N4CC5(CCCN5C)C4)cc3n2C1

>  <RESULT NUMBER>
0.014

$$$$
>  <COMPOUND>
C[C@@H]1CCCOc2c(cnn2C)-c2cc(cn(C)c2=O)C(=O)Nc2nc3ccc(N4CCN(C5COC5)CC4)cc3n2C1

>  <RESULT NUMBER>
0.0076

$$$$
>  <COMPOUND>
C[C@@H]1CCCOc2c(cnn2C)-c2cc(cn(C)c2=O)C(=O)Nc2nc3ccc(N4CCN(C)CC4)c(Cl)c3n2C1

>  <RESULT NUMBER>
0.128

$$$$

1 = C[C@@H]1CCCOc2c(cnn2C)-c2cc(cn(C)c2=O)C(=O)Nc2nc3ccc(N4CCC5(CCN(C)C5)CC4)cc3n2C1
2 = CN1CCN(c2ccc3nc4n(c3c2)CCN(CC(F)(F)F)CCOc2c(cnn2C)-c2cc(cn(C)c2=O)C(=O)N4)CC1
3 = CN1CCN(c2ccc3nc4n(c3c2)CCN(CC(F)(F)F)CCOc2c(cnn2C2CC2)-c2cc(cn(C)c2=O)C(=O)N4)CC1
// query Thanks in advance: please rank these 3 entries by GI50, highest to lowest. Answer by listing the labels in the requested order.
// result 2, 3, 1

A = C[C@@H]1CCCOc2c(cnn2C)-c2cc(cn(C)c2=O)C(=O)Nc2nc3ccc(N4CC(N5CCN(C)CC5)C4)cc3n2C1
B = Cn1ncc2c1OCCN1CC(CCC1(C)C)n1c(nc3ccc(N4CCOCC4)cc31)NC(=O)c1cc-2c(=O)n(C)c1 (centres unmarked)
// query Just curious, which one has the larger GI50 reading, A or B ? Identify your selection by its label.
// result B

1 = C[C@@H]1CCCOc2c(cnn2C)-c2cc(cn(C)c2=O)C(=O)Nc2nc3ccc(N4CC5(CCN(C)CC5(F)F)C4)cc3n2C1
2 = Cn1ncc2c1OCCN1CCC(C)(C1)n1c(nc3ccc(N4CCOCC4)cc31)NC(=O)c1cc-2c(=O)n(C)c1 (centres unmarked)
// query From the recorded data, which exceeds the other in GI50: 1 or 2 ? Use the label to indicate which entry you chose.
// result 2

a = C[C@@H]1CCCOc2c(cnn2C)-c2cc(cn(C)c2=O)C(=O)Nc2nc3ccc(N4CCN(C5CC5)CC4)cc3n2C1
b = Cn1ncc2c1OCCN1CC3CCC(C3)(C1)n1c(nc3ccc(N4CCOCC4)cc31)NC(=O)c1cc-2c(=O)n(C)c1 (single isomer, unassigned) [Example A62B]
// query Kindly identify which of a and b has the larger recorded GI50 value. Answer by stating the label of the chosen item.
// result a
(a: 0.038 µM, b: 0.01 µM)

====

# TARGET UNDER TEST: EGFR (C797S L858R) (Homo sapiens, UniProt P00533, C797S/L858R)
# Construct: purchased signalchem
# Sequence (P00533 25-1210 C797S/L858R): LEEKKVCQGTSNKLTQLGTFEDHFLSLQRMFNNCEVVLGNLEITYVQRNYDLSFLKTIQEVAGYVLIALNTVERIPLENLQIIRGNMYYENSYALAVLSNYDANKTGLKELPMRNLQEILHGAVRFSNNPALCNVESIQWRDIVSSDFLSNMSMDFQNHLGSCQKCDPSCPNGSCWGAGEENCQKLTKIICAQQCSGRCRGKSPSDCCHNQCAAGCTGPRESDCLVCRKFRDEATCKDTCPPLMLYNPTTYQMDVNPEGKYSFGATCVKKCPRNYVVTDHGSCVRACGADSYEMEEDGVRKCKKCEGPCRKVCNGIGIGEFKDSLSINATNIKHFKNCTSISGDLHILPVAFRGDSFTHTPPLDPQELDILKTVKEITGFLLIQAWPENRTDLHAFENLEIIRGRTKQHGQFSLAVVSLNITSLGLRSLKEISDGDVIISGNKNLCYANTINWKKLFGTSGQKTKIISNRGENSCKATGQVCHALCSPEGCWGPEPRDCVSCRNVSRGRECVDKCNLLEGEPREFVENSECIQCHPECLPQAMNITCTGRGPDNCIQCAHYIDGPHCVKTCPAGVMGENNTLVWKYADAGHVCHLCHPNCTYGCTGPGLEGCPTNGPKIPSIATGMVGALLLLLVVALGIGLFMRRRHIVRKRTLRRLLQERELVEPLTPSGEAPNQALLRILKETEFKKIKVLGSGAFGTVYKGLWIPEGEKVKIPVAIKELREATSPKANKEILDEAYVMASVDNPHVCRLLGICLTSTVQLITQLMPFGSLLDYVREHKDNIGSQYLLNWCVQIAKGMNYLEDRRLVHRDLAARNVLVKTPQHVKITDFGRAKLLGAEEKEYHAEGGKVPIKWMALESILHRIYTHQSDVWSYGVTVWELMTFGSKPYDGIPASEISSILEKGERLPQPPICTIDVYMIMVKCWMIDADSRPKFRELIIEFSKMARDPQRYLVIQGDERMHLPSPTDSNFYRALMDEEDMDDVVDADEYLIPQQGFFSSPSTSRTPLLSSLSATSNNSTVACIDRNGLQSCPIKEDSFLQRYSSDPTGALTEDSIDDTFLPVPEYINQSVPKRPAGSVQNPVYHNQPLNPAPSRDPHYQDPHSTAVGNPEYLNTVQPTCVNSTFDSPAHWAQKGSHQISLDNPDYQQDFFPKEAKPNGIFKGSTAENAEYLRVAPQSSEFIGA
# ASSAY OVERVIEW: Inhibition of EGFR (C797S L858R) biochemical enzymatic activity (HTRF)
# PARTICULARS: EGFR L858-C797S, 1 mM ATP, 1 h, room temperature, read-out: IC50 (nM) @L858-C797S
MEASURE NAME: IC50 (nM)

>  <MOLECULE>
CN(C)C1CCN(c2ccc3nc4n(c3c2)C23CCC(CC2)CN(CCOc2c(cnn2C)-c2cc(cn(C)c2=O)C(=O)N4)C3)CC1

>  <TARGET UNDER TEST>
EGFR (C797S L858R) (Homo sapiens, UniProt P00533, C797S/L858R)

>  <U>
nM

>  <RESULT NUMBER>
19

$$$$
>  <MOLECULE>
CN(C)[C@@H]1CCN(c2ccc3nc4n(c3c2)C23CCC(CN(CCOc5c(cnn5C)-c5cc(cn(C)c5=O)C(=O)N4)C2)C3)C1 (single isomer, unassigned) [Example A66D]

>  <TARGET UNDER TEST>
EGFR (C797S L858R) (Homo sapiens, UniProt P00533, C797S/L858R)

>  <U>
nM

>  <RESULT NUMBER>
3.7

$$$$
>  <MOLECULE>
C[C@@H]1CCCOc2c(cnn2C)-c2cc(cn(C)c2=O)C(=O)Nc2nc3ccc(N4CCN(C5COC5)CC4)cc3n2C1

>  <TARGET UNDER TEST>
EGFR (C797S L858R) (Homo sapiens, UniProt P00533, C797S/L858R)

>  <U>
nM

>  <RESULT NUMBER>
30

$$$$

A = CN(C)C1CN(c2ccc3nc4n(c3c2)C23CCC(CN(CCOc5c(cnn5C)-c5cc(cn(C)c5=O)C(=O)N4)C2)C3)CC1F (single isomer, unassigned) [Example A84D]
B = CN1CCC2(C1)CN(c1ccc3nc4n(c3c1)C13CCC(CN(CCOc5c(cnn5C)-c5cc(cn(C)c5=O)C(=O)N4)C1)C3)C2 (single isomer, unassigned) [Example A78B]
// query Higher IC50: A or B ? // caller expects the label of the chosen entry
// result A
(A: 9.8 nM, B: 2.2 nM)

P = CN1CCOC2(C1)CN(c1ccc3nc4n(c3c1)C13CCC(CN(CCOc5c(cnn5C)-c5cc(cn(C)c5=O)C(=O)N4)C1)C3)C2 (single isomer, unassigned) [Example A86B]
Q = CN1CC2(C1)CN(c1ccc3nc4n(c3c1)C13CCC(CN(CCOc5c(cnn5C)-c5cc(cn(C)c5=O)C(=O)N4)C1)C3)C2 (single isomer, unassigned) [Example A92A]
// query Sort P and Q by IC50 descending and give the first. Provide the label of your selected option as the answer.
// result Q

a = C[C@@H]1CCCOc2c(cnn2C)-c2cc(cn(C)c2=O)C(=O)Nc2nc3ccc(N4CCOCC4)cc3n2C1
b = CN(C)C1CCN(c2ccc3nc4n(c3c2)C23CCC(CN(CCOc5c(cnn5C)-c5cc(cn(C)c5=O)C(=O)N4)C2)C3)CC1 (single isomer, unassigned) [Example A64B]
c = CN(C)[C@@H]1CCN(c2ccc3nc4n(c3c2)C23CCC(CC2)CN(CCOc2c(cnn2C)-c2cc(cn(C)c2=O)C(=O)N4)C3)C1
// query With regard to IC50, arrange the entries in ascending order, please. Use the labels to give the requested order.
// result b, a, c
(b: 2 nM, a: 33 nM, c: 101 nM)
